B1: SLC19A2 (parent)
chain: FASLRPSEPFLTPYLLGPDKNLTE

Variants of: B1
Test: protein stability index of a GFP-peptide fusion (GPS, HEK-293T) (PSI 1-6); higher = more stable;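 note: lentivirally expressed fusions sorted by FACS into six bins by GFP to DsRed ratio, PSI derived from sequencing read proportions per bin multiplied by bin number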
Conditions: c terminus: a fixed tail appended
Kind request: treat 2 as inclusive, so protein stability index at 2 or higher is Condition met, anything lower is Condition not met.

For orientation, consider the following solved cases.
L22K	Condition met
P18G	Condition not met
L11E	Condition met

Now for a further variant.
Exercise: For this variant, is measured protein stability index 2 or higher? G17N
Key: Condition met

Cited source: the supplement of paper PMC10567573
